# measurement_protocol: Metabolic stability in human liver microsomes
# Assay type: in vitro ADME
# experimental_conditions: predicted in vivo clearance from liver microsomes, well-stirred model, 1 μM
# From the text: Determination of Metabolic Stability in Human and Rat Liver Microsomes Isolated Human Liver Microsomes (HLM) were Used to Assess the Metabolic Stability of compounds of general formula I. […]
Think of 5 mL/min/kg as a floor: if Predicted clearance Human stands on it or above, it is 1.0; beneath it, 0.0.

{"compound": "C[C@]12C[C@H](c3ccc(C#C/C=C/c4cccc(C(=O)O)c4)cc3)C3=C4CCC(=O)C=C4CCC3C1CC[C@@]2(O)C(F)(F)C(F)(F)F (stereo partly shown) [Example 13A]", "group": 1.0}

# evaluate next
Ask | For this compound, is measured Predicted clearance Human 5 mL/min/kg or higher? C[C@]12C[C@H](c3ccc(C#Cc4ccc(C(=O)O)cc4)cc3)C3=C4CCC(=O)C=C4CC[C@H]3[C@@H]1CC[C@@]2(O)C(F)(F)C(F)(F)F
Reply | 1.0

* * *

# measurement_protocol: Clearance and half-life after intravenous administration in rats
# Type: in vivo
# experimental_conditions: female, rat, plasma, iv, i.v. bolus 0.3-0.5 mg/kg, read-out: t1/2 (terminal half-life)
readout: half-life

Ask | Reported half-life for C[C@]12C[C@H](c3ccc(C#C/C=C/C#N)cc3)C3=C4CCC(=O)C=C4CCC3C1CC[C@@]2(O)C(F)(F)C(F)(F)F (stereo partly shown) [Example 4] : what is it?
Reply | ≥ 1 h

* * *

# assay_system: human progesterone receptor B (Homo sapiens)
# Construct: expressed in transfected cells; host or cells: SK-N-MC human neuroblastoma cells, stably transfected with pRChPR-B-neo and pMMTV-LUC
# Sequence (P06401 1-933): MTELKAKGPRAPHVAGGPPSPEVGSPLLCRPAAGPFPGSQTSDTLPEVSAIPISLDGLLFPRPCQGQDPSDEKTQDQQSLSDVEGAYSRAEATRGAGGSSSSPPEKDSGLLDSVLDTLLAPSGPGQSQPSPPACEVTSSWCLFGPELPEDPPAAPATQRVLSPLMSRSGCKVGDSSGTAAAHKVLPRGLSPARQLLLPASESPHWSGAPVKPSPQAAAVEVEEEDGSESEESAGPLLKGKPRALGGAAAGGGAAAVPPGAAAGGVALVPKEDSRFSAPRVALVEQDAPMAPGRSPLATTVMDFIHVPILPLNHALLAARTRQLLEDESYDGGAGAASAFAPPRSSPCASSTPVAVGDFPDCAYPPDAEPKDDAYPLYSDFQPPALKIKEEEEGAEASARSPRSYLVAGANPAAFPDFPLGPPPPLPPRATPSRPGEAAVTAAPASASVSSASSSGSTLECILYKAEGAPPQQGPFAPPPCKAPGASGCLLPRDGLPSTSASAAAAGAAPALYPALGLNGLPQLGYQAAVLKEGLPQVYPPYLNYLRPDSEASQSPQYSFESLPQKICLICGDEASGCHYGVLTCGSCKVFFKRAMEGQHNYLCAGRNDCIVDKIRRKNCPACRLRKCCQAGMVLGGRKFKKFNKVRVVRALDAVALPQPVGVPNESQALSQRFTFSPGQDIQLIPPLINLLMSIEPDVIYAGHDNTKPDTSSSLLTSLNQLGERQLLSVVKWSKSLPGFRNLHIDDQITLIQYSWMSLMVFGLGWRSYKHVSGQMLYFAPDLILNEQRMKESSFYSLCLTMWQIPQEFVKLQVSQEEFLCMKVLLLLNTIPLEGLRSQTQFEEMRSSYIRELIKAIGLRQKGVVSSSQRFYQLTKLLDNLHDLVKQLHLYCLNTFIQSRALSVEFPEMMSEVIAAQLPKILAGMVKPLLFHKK
# measurement_protocol: Progesterone receptor-antagonistic action in stably transfected SK-N-MC cells, PR-B, MMTV-LUC reporter
# Assay type: cell-based
# experimental_conditions: read-out: IC50 PR-B
readout: pIC50
As a rule, pIC50 stands for the negative log10 of the concentration, concentration in M.

{"compound": "CCOC(=O)c1ccc(NC(=O)NCC#Cc2ccc([C@H]3C[C@@]4(C)C(CC[C@@]4(O)C(F)(F)C(F)(F)F)C4CCC5=CC(=O)CCC5=C43)cc2)cc1 (stereo partly drawn)", "readout": "pIC50", "observed": 9.40}
{"compound": "C[C@]12C[C@H](c3ccc(C#C/C=C/c4cccc(C(=O)O)c4)cc3)C3=C4CCC(=O)C=C4CCC3C1CC[C@@]2(O)C(F)(F)C(F)(F)F (stereo partly drawn) [Example 13A]", "readout": "pIC50", "observed": 9.70}
{"compound": "C[C@]12C[C@H](c3ccc(C#CCN=[N+]=[N-])cc3)C3=C4CCC(=O)C=C4CC[C@H]3[C@@H]1CC[C@@]2(O)C(F)(F)C(F)(F)F", "readout": "pIC50", "observed": 9.52}
{"compound": "C[C@]12C[C@H](c3ccc(C#CCOCC(=O)O)cc3)C3=C4CCC(=O)C=C4CCC3C1CC[C@@]2(O)C(F)(F)C(F)(F)F (stereo partly drawn)", "readout": "pIC50", "observed": 8.00}
{"compound": "C=CCNC(=O)NCC#Cc1ccc([C@H]2C[C@@]3(C)[C@@H](CC[C@@]3(O)C(F)(F)C(F)(F)F)[C@@H]3CCC4=CC(=O)CCC4=C32)cc1", "readout": "pIC50", "observed": 10.00}

Moving on to another compound below.
Ask | Identify the measured pIC50 of C[C@]12C[C@H](c3ccc(C#CC=NOCc4ccc(Cl)c(Cl)c4)cc3)C3=C4CCC(=O)C=C4CCC3C1CC[C@@]2(O)C(F)(F)C(F)(F)F (mixture of isomers) for human progesterone receptor B (Homo sapiens).
Reply | 8.70

* * *

# assay_system: human progesterone receptor A (Homo sapiens, UniProt P06401)
# Construct: expressed in transfected cells; host or cells: SK-N-MC human neuroblastoma cells, stably transfected with pRChPR-A-neo and pMMTV-LUC
# measurement_protocol: Progesterone receptor-antagonistic action in stably transfected SK-N-MC cells, PR-A, MMTV-LUC reporter
# Format: cell-based
# experimental_conditions: read-out: IC50 PR-A
# Description: Determination of Progesterone Receptor-Antagonistic Action in Stable Transfectants of Human Neuroblastoma Cells (SK-N-MC Cells) with the Human Progesterone a or Progesterone B Receptor and an MN-LUC Reporter Construct […]
Assign labels as follows, please: 1 (yes) for IC50 below 0.1 nM; 0 (no) for IC50 equal to or exceeding 0.1 nM.

For orientation, consider the following solved cases.
{"compound": "C[C@]12C[C@H](c3ccc(C#CCOCc4nnn[nH]4)cc3)C3=C4CCC(=O)C=C4CC[C@H]3[C@@H]1CC[C@@]2(O)C(F)(F)C(F)(F)F", "group": "0 (no)"}
{"compound": "Cc1ccc(NC(=O)NCC#Cc2ccc([C@H]3C[C@@]4(C)[C@@H](CC[C@@]4(O)C(F)(F)C(F)(F)F)[C@@H]4CCC5=CC(=O)CCC5=C43)cc2)cc1", "group": "0 (no)"}
{"compound": "CCOC(=O)C=CC=CC#Cc1ccc([C@H]2C[C@@]3(C)C(CC[C@@]3(O)C(F)(F)C(F)(F)F)C3CCC4=CC(=O)CCC4=C32)cc1 (some centres unmarked)", "group": "0 (no)"}
{"compound": "CC(C)(C)NC(=O)OCC#Cc1ccc([C@H]2C[C@@]3(C)C(CC[C@@]3(O)C(F)(F)C(F)(F)F)C3CCC4=CC(=O)CCC4=C32)cc1 (some centres unmarked)", "group": "1 (yes)"}
{"compound": "CC(C)(C)OC(=O)COCC#Cc1ccc([C@H]2C[C@@]3(C)[C@@H](CC[C@@]3(O)C(F)(F)C(F)(F)F)[C@@H]3CCC4=CC(=O)CCC4=C32)cc1", "group": "0 (no)"}

Ask | Strictly below 0.1 nM: is that where IC50 of CC(C)NC(=O)OCC#Cc1ccc([C@H]2C[C@@]3(C)C(CC[C@@]3(O)C(F)(F)C(F)(F)F)C3CCC4=CC(=O)CCC4=C32)cc1 (some centres unmarked) sits?
Reply | 1 (yes)

Ask | Quick check: IC50 of CCO/N=C/C#Cc1ccc([C@H]2C[C@@]3(C)[C@@H](CC[C@@]3(O)C(F)(F)C(F)(F)F)[C@@H]3CCC4=CC(=O)CCC4=C32)cc1 [Example 25A] under 0.1 nM?
Reply | 1 (yes)

Ask | Is IC50 strictly under 0.1 nM for the entry COC(=O)COCC#Cc1ccc([C@H]2C[C@@]3(C)[C@@H](CC[C@@]3(O)C(F)(F)C(F)(F)F)[C@@H]3CCC4=CC(=O)CCC4=C32)cc1 ?
Reply | 0 (no)

Ask | IC50 strictly < 0.1 nM for this compound? C[C@]12C[C@H](c3ccc(CO)cc3)C3=C4CCC(=O)C=C4CC[C@H]3[C@@H]1CC[C@@]2(O)C(F)(F)C(F)(F)F [Ref. 1*, reference compound]
Reply | 0 (no)
